TARGET_OF_ASSAY: T1, HLA-A*03:01 (human)
T1 construct: recombinant MHC class I molecule incubated with the synthetic peptide (REVEAL, ProImmune)
EXPERIMENT_NOTES: REVEAL MHC-peptide binding assay, recombinant HLA
QUANTITY_KIND: In Vitro Score

[
  {
    "BINDER": "FWVLRGRKK (synthetic 9-mer variant; the entry already carries the change)",
    "QUANTITY_KIND": "In Vitro Score",
    "MEASURED_VALUE": "0.4 % of positive control peptide"
  },
  {
    "BINDER": "FIIFWVSRG (synthetic 9-mer variant; the entry already carries the change)",
    "QUANTITY_KIND": "In Vitro Score",
    "MEASURED_VALUE": "0.1 % of positive control peptide"
  },
  {
    "BINDER": "IFWVLRGRK (synthetic 9-mer variant; the entry already carries the change)",
    "QUANTITY_KIND": "In Vitro Score",
    "MEASURED_VALUE": "19.5 % of positive control peptide"
  },
  {
    "BINDER": "AFIIFWVQR (synthetic 9-mer variant; the entry already carries the change)",
    "QUANTITY_KIND": "In Vitro Score",
    "MEASURED_VALUE": "0.2 % of positive control peptide"
  },
  {
    "BINDER": "WVSRGRKKL (synthetic 9-mer variant; the entry already carries the change)",
    "QUANTITY_KIND": "In Vitro Score",
    "MEASURED_VALUE": "2.1 % of positive control peptide"
  },
  {
    "BINDER": "WVKRGRKKL (synthetic 9-mer of the CD28-4-1BB junction; mutation: none)",
    "QUANTITY_KIND": "In Vitro Score",
    "MEASURED_VALUE": "13.1 % of positive control peptide"
  },
  {
    "BINDER": "FWVKRGHKK (synthetic 9-mer variant; the entry already carries the change)",
    "QUANTITY_KIND": "In Vitro Score",
    "MEASURED_VALUE": "4.1 % of positive control peptide"
  },
  {
    "BINDER": "FWVKRGNKK (synthetic 9-mer variant; the entry already carries the change)",
    "QUANTITY_KIND": "In Vitro Score",
    "MEASURED_VALUE": "3.6 % of positive control peptide"
  },
  {
    "BINDER": "AFIIFWVKR (synthetic 9-mer of the CD28-4-1BB junction; mutation: none)",
    "QUANTITY_KIND": "In Vitro Score",
    "MEASURED_VALUE": "5.7 % of positive control peptide"
  },
  {
    "BINDER": "FIIFWVQRG (synthetic 9-mer variant; the entry already carries the change)",
    "QUANTITY_KIND": "In Vitro Score",
    "MEASURED_VALUE": "0.4 % of positive control peptide"
  },
  {
    "BINDER": "VAFIIFWVQ (synthetic 9-mer variant; the entry already carries the change)",
    "QUANTITY_KIND": "In Vitro Score",
    "MEASURED_VALUE": "0.2 % of positive control peptide"
  },
  {
    "BINDER": "WVQRGSKKL (synthetic 9-mer variant; the entry already carries the changes)",
    "QUANTITY_KIND": "In Vitro Score",
    "MEASURED_VALUE": "1.2 % of positive control peptide"
  },
  {
    "BINDER": "WVLRGRKKL (synthetic 9-mer variant; the entry already carries the change)",
    "QUANTITY_KIND": "In Vitro Score",
    "MEASURED_VALUE": "0.7 % of positive control peptide"
  },
  {
    "BINDER": "FIIFWVLRG (synthetic 9-mer variant; the entry already carries the change)",
    "QUANTITY_KIND": "In Vitro Score",
    "MEASURED_VALUE": "0.1 % of positive control peptide"
  },
  {
    "BINDER": "IFWVKRGRK (synthetic 9-mer of the CD28-4-1BB junction; mutation: none)",
    "QUANTITY_KIND": "In Vitro Score",
    "MEASURED_VALUE": "20.5 % of positive control peptide"
  },
  {
    "BINDER": "FWVARGRKK (synthetic 9-mer variant; the entry already carries the change)",
    "QUANTITY_KIND": "In Vitro Score",
    "MEASURED_VALUE": "5 % of positive control peptide"
  }
]

Recorded values, source patent US20200297760A1.
